Tested on: MDA-MB-468 breast
Test: NCI-60 one-dose screen, 48 h (100 = growth as untreated, 0 = no growth, -100 = all killed)
Details: 10 µM unless noted
About 83,000 compounds went through this panel and 20% of them were active in at least one assay; those are over-represented in the sample as a whole.
Give growth for every item shown.
Number in %, nothing else.

IN: Param item = COC(C(=O)[C@@H](O)[C@@H](C)O)[C@@H]1Cc2cc3cc(O[C@H]4C[C@@H](O[C@H]5C[C@@H](O)[C@H](O)C(C)O5)[C@H](O)C(C)O4)c(C)c(O)c3c(O)c2C(=O)[C@H]1O[C@H]1C[C@@H](O[C@H]2C[C@@H](O[C@H]3C[C@@H](O)[C@@H](O)C(C)O3)[C@@H](O)C(C)O2)[C@H](O)C(C)O1 (some centres not stated) ; retrieve measured growth.
OUT: -41.2

IN: Param item = CCOC(=O)/C(C#N)=C/c1ccc(N(CCCl)CCCl)cc1 ; retrieve measured growth.
OUT: 64.2

IN: Param item = CO[C@H](C(=O)O)[C@@H]1Cc2cc3cc(OC4CC(OC5CC(O)C(O)C(C)O5)C(O)C(C)O4)c(C)c(O)c3c(O)c2C(=O)[C@H]1OC1CC(OC2CC(OC3CC(C)(O)C(O)C(C)O3)C(O)C(C)O2)C(O)C(C)O1 (some centres not stated) ; retrieve measured growth.
OUT: -16.7

IN: Param item = O=S(=O)(F)c1ncnc2nc[nH]c12 ; retrieve measured growth.
OUT: 96.1

IN: Param item = CC(=O)OC[C@]1(C)C=C2C(=O)[C@](C)(O)C3(CC3)C(C)=C2[C@H]1OC(=O)N(C)CCN(C)C(=O)OC(C)(C)C ; retrieve measured growth.
OUT: -62.5

IN: Param item = COC(=O)[C@@H](C)C[C@H](Cc1ccccc1)NC(=O)c1csc([C@@H](C[C@H](C(C)C)N(C)C(=O)[C@@H](NC(=O)[C@H]2CCCCN2C)C2CCCCC2)OC(C)=O)n1 ; retrieve measured growth.
OUT: -8.49

IN: Param item = COc1ccc(OC)c(/C=C(/C)[N+](=O)[O-])c1 ; retrieve measured growth.
OUT: -40.8

====

Test system: HCT-116 colon
Experiment: NCI-60 one-dose screen, 48 h
Conditions: 10 µM
Protocol: Growth inhibition of the HCT-116 human tumor cell line is measured as a screen for anti-cancer activity. Cells are grown in 96 well plates and exposed to the test compound for 48 hours. Compounds are tested at a single concentration, which is 10^-5 M for most compounds. The reported endpoint is percent growth (GI% or GIPRCNT), where numbers from 0 - 100% represent growth inhibition, and numbers from -100% - 0 represent cell death. For example, a value of 40 represents 60% growth inhibition. […]
Compounds without any hit were thinned out: in the full panel of roughly 83,000, 20% have a hit. Calls of active or inactive are those of the source. Rule for the calls: active = growth percent below 10; inactive = the rest.
Select the correct class. Options are class 1 (active), class 0 (inactive) and nothing else.

IN: Assay result, entry Cc1ccc2[nH]c(=S)n(-c3ccc(F)cc3)c(=O)c2c1 — outcome?
OUT: class 0

IN: Assay result, entry CN(C)CCc1cn(C2CCC2)c2cccc(O)c12 — outcome?
OUT: class 0

IN: Assay result, entry CCOP(=O)(OCC)C(NC(C)=O)C(=O)SCCN (stereo unspecified) — outcome?
OUT: class 0

IN: Assay result, entry CCC[Se]C(=O)c1ccc(C(=O)[Se]CCC)s1 — outcome?
OUT: class 1

IN: Assay result, entry O=C(/C=C/c1ccc(Cl)cc1)c1nc2ccccc2n1Cc1ccc(Br)cc1 — outcome?
OUT: class 0

IN: Assay result, entry O=C(/C=C/c1cccc(Br)c1)c1nc2ccccc2n1Cc1ccc(F)cc1 — outcome?
OUT: class 1

IN: Assay result, entry O=C(/C=C/c1ccc(Cl)cc1)c1nc2ccccc2n1Cc1ccc(F)cc1 — outcome?
OUT: class 1

IN: Assay result, entry CC(=C\C(=O)Oc1ccc2c3c1OC1C(O)CCC4(O)C(C2)N(CC2CCC2)CCC314)/C=C1\CCCc2ccccc21 (stereo unspecified) — outcome?
OUT: class 0

IN: Assay result, entry O=C(NC([Se])=NC1CCCCC1)c1ccccc1 — outcome?
OUT: class 0

IN: Assay result, entry CC(=O)Oc1ccccc1C(=O)[Se]C(=NC(C)C)NC(C)C — outcome?
OUT: class 1

IN: Assay result, entry COC(=O)C[C@](O)(CCC(C)C)C(=O)O[C@H]1C(OC)=C[C@@]23CCCN2CCc2cc4c(cc2[C@@H]13)OCO4 — outcome?
OUT: class 1

====

Tested on: HCT-15 colon
Assay: NCI-60 one-dose screen, 48 h
Conditions: 10 µM
The panel holds about 83,000 compounds, 20% with a hit somewhere; the sample as a whole holds those more often. Activity calls are given as the source filed them. The calls were made as follows: active = growth percent below 10; inactive = the rest.
Select the correct class. Options are YES (active), NO (inactive) and nothing else.

IN: Assay result, entry O=C(/C=C/c1ccccc1)c1nc2ccccc2n1Cc1ccc(Br)cc1 — outcome?
OUT: YES

IN: Assay result, entry C=CC[Se]C(=O)c1ccc(C(=O)[Se]CC=C)s1 — outcome?
OUT: YES

IN: Assay result, entry O=C(/C=C/c1ccccc1Cl)c1nc2ccccc2n1Cc1ccc(F)cc1 — outcome?
OUT: YES

IN: Assay result, entry O=C(NC([Se])=NC1CCCCC1)c1ccc2c(c1)OCO2 — outcome?
OUT: NO

IN: Assay result, entry COCCOCCOCCOc1ccc(-n2cc(-c3ccc(O[C@H]4O[C@@H]5OC6(C)CC[C@H]7[C@H](C)CC[C@@H]([C@H]4C)[C@@]57OO6)cc3)nn2)cc1 — outcome?
OUT: NO

IN: Assay result, entry COc1cc(OC)c(/C=C/C(=O)c2nc3ccccc3n2Cc2ccc(F)cc2)c(OC)c1 — outcome?
OUT: NO

IN: Assay result, entry O=C(NCCCCC(c1ccc(F)cc1)c1ccc(F)cc1)Nc1ccc([N+](=O)[O-])c(C(F)(F)F)c1 — outcome?
OUT: YES

IN: Assay result, entry C[C@H]1[C@H](OC(=O)CCC(=O)N(CCCc2cn(-c3ccc([N+](=O)[O-])cc3)nn2)CCNc2ccnc3cc(Cl)ccc23)O[C@@H]2OC3(C)CC[C@H]4[C@H](C)CC[C@@H]1[C@@]24OO3 — outcome?
OUT: NO

IN: Assay result, entry COC(=O)C[C@](O)(CCC(C)C)C(=O)O[C@H]1C(OC)=C[C@@]23CCCN2CCc2cc4c(cc2[C@@H]13)OCO4 — outcome?
OUT: YES

IN: Assay result, entry CC[C@]12C=CCN3CC[C@@]4(c5ccc(OC)cc5N(C)[C@H]4[C@@](O)(C(=O)OC)[C@@H]1OC(=O)CCCC[P+](c1ccc(C)cc1)(c1ccc(C)cc1)c1ccc(C)cc1)[C@@H]32 — outcome?
OUT: YES

IN: Assay result, entry C[C@H]1[C@@H](CC(=O)N[C@@H](Cc2coc3ccccc23)B(O)O)O[C@@H]2OC3(C)CC[C@H]4[C@H](C)CC[C@@H]1[C@@]24OO3 — outcome?
OUT: YES

IN: Assay result, entry CCOC(=O)C1=C(Nc2ccccc2)C(=O)OC12C(=O)Nc1ccccc12 (stereo unspecified) — outcome?
OUT: NO

IN: Assay result, entry COCCOCCOCCOc1ccc(-n2cc(CCCN(CCNc3ccnc4cc(Cl)ccc34)C(=O)CCC(=O)O[C@@H]3O[C@@H]4OC5(C)CC[C@H]6[C@H](C)CC[C@@H]([C@H]3C)[C@@]46OO5)nn2)cc1 — outcome?
OUT: NO

IN: Assay result, entry C#CC[Se]C(=O)c1ccc2n[se]nc2c1 — outcome?
OUT: NO

IN: Assay result, entry CC[C@]12C=CCN3CC[C@@]4(c5ccc(OC)cc5N(C)[C@H]4[C@@](O)(C(=O)OC)[C@@H]1OC(=O)CCC[P+](c1ccc(C)cc1)(c1ccc(C)cc1)c1ccc(C)cc1)[C@@H]32 — outcome?
OUT: YES

IN: Assay result, entry CCC[Se]C(=O)c1ccc(C(=O)[Se]CCC)s1 — outcome?
OUT: YES

====

System: ACHN renal
Assay: NCI-60 one-dose screen, 48 h
Settings: 10 µM
The panel holds about 83,000 compounds, 20% with a hit somewhere; the sample as a whole holds those more often. The source made the active and inactive calls. Rule for the calls: active = growth percent below 10; inactive = the rest.
Select the correct class. Options are yes = active, no = inactive and nothing else.

IN: Assay result, entry COC(=O)c1ccc(-n2cc(CCCN(CCNc3ccnc4cc(Cl)ccc34)C(=O)CCC(=O)O[C@@H]3O[C@@H]4OC5(C)CC[C@H]6[C@H](C)CC[C@@H]([C@H]3C)[C@@]46OO5)nn2)cc1 — outcome?
OUT: no

IN: Assay result, entry O=C(/C=C/c1ccc(Cl)cc1Cl)c1nc2ccccc2n1Cc1ccc(F)cc1 — outcome?
OUT: no

IN: Assay result, entry CC1=C(CCC=O)C2=C(C)C3(CC3)[C@@](C)(O)C(=O)C2=C1 — outcome?
OUT: yes

IN: Assay result, entry COc1ccc2cc([C@H](C)C(=O)[Se]CCC#N)ccc2c1 — outcome?
OUT: yes

IN: Assay result, entry C[C@H]1[C@H](OC(=O)CCC(=O)N(CCCc2cn(-c3ccc(CN4CCOCC4)cc3)nn2)CCNc2ccnc3cc(Cl)ccc23)O[C@@H]2OC3(C)CC[C@H]4[C@H](C)CC[C@@H]1[C@@]24OO3 — outcome?
OUT: no

IN: Assay result, entry CC(C)N=C([Se])NC(=O)c1ccccc1 — outcome?
OUT: yes

IN: Assay result, entry O=C(/C=C/c1ccc(Br)cc1)c1nc2ccccc2n1Cc1ccc(Br)cc1 — outcome?
OUT: yes

IN: Assay result, entry COc1ccc(/C=C/C(=O)c2nc3ccccc3n2Cc2ccc(Br)cc2)cc1 — outcome?
OUT: no

IN: Assay result, entry CC1=C(CCC=NNC(N)=O)C2=C(C)C3(CC3)[C@@](C)(O)C(=O)C2=C1 — outcome?
OUT: yes

IN: Assay result, entry COc1ccc(OC)c(/C=C/C(=O)c2nc3ccccc3n2Cc2ccc(F)cc2)c1 — outcome?
OUT: yes

IN: Assay result, entry O=C([Se]C1C=CCCC1)c1ccc(C(=O)[Se]C2C=CCCC2)s1 (stereo not drawn) — outcome?
OUT: yes

IN: Assay result, entry O=C(/C=C/c1ccccc1)c1nc2ccccc2n1Cc1ccc(F)cc1 — outcome?
OUT: yes

IN: Assay result, entry O=C(/C=C/c1ccccc1Cl)c1nc2ccccc2n1Cc1ccc(F)cc1 — outcome?
OUT: yes

IN: Assay result, entry COP(=O)(CC(F)(F)C(F)(F)F)OC — outcome?
OUT: yes

IN: Assay result, entry COc1cc(OC)c(/C=C/C(=O)c2nc3ccccc3n2Cc2ccc(F)cc2)c(OC)c1 — outcome?
OUT: no

IN: Assay result, entry CC[C@]12C=CCN3CC[C@@]4(c5ccc(OC)cc5N(C)[C@H]4[C@@](O)(C(=O)OC)[C@@H]1OC(=O)CCC[P+](C1CCCCC1)(C1CCCCC1)C1CCCCC1)[C@@H]32 — outcome?
OUT: no

IN: Assay result, entry C#CC[Se]C(=O)c1ccc(C(=O)[Se]CC#C)s1 — outcome?
OUT: no

IN: Assay result, entry C#CCCCN(CCNc1ccnc2cc(Cl)ccc12)C(=O)CCC(=O)O[C@@H]1O[C@@H]2OC3(C)CC[C@H]4[C@H](C)CC[C@@H]([C@H]1C)[C@@]24OO3 — outcome?
OUT: no

The measurements presented in this section are drawn from PubChem BioAssay (NCI).
